targetOrTestSystem: HIV-1 protease (Human immunodeficiency virus type 1 group M subtype B)
assayProcedure: HIV protease inhibition assay (quenched fluorogenic substrate, fluorescence energy transfer)
runConditions: Enzyme IC50 (nM), crude HIV-1 protease from E. coli, pH 4.7, 2 hours at 37° C.
measuredEndpoint: IC50 (nM)
Provide only the numeric value, understood in nM.

# lookup: IC50 of CO[C@H]1CC[C@@H](C(=O)NC(C)(C)C)C(C[C@@H](O)[C@H](Cc2ccccc2)NC(=O)[C@@H](CSc2ccc3ccccc3c2)NS(C)(=O)=O)C1 (some centres unmarked)
0.42

Then CO[C@H]1CC[C@@H](C(=O)NC(C)(C)C)C(C[C@@H](O)[C@H](Cc2ccccc2)NC(=O)[C@@H](CS(=O)(=O)c2ccc3ccccc3c2)NS(C)(=O)=O)C1 (some centres unmarked) ?
0.2

Then COC1CCC(C[C@@H](O)[C@H](Cc2ccccc2)NC(=O)[C@@H](CS(=O)(=O)c2ccc3ccccc3c2)NS(C)(=O)=O)C(C(=O)NC(C)(C)C)C1 (some centres unmarked) ?
0.6

Then COC1CCC(C[C@@H](O)[C@H](Cc2ccccc2)NC(=O)[C@@H](CSc2ccc3ccccc3c2)NS(C)(=O)=O)C(C(=O)NC(C)(C)C)C1 (some centres unmarked) [Example 10] ?
0.3

The record that follows has no IC50 shown yet.
# lookup: IC50 of CC(C)(C)NC(=O)C1CCCCC1C[C@@H](O)[C@H](Cc1ccccc1)NC(=O)[C@@H](C[S+]([O-])c1cccc2ccccc12)NS(C)(=O)=O (some centres unmarked)
0.31

---

targetOrTestSystem: HIV-1 protease (Human immunodeficiency virus type 1 group M subtype B, UniProt P04585)
assayProcedure: HIV protease inhibition assay (quenched fluorogenic substrate, fluorescence energy transfer)
runConditions: Enzyme IC50 (nM), crude HIV-1 protease from E. coli, pH 4.7, 2 hours at 37° C.
measuredEndpoint: IC50 (nM)
Provide only the numeric value, understood in nM.

Study these solved cases before continuing.
# lookup: IC50 of COC1CCC(C[C@@H](O)[C@H](Cc2ccccc2)NC(=O)[C@@H](C[S+]([O-])c2ccc3ccccc3c2)NS(C)(=O)=O)C(C(=O)NC(C)(C)C)C1 (stereo partly drawn)
0.2

Then CC1CC(C[C@@H](O)[C@H](Cc2ccccc2)NC(=O)[C@@H](C[S+]([O-])c2ccc3ccccc3c2)NS(C)(=O)=O)C(C(=O)NC(C)(C)C)C1 (stereo partly drawn) ?
1.5

***
# lookup: IC50 of COC1CCC(C[C@@H](O)[C@H](Cc2ccccc2)NC(=O)[C@@H](CS(=O)(=O)c2cccc3ccccc23)NS(C)(=O)=O)C(C(=O)NC(C)(C)C)C1 (stereo partly drawn)
0.41

---

Test system: HIV-HXB2 in MT4 cells
assayProcedure: Antiviral assay: protection of HIV-infected MT4 cells from cell death (MTT)
Type: cell-based
runConditions: Human immunodeficiency virus 1, HXB2, MT4, 120 h, MT4 cells infected with HIV-HXB2, 5 days, concentration preserving cell viability by 50%
measuredEndpoint: pIC50
Worth noting: pIC50 values are minus log10 of concentrations stated in mol/L.

Study these solved cases before continuing.
# lookup: pIC50 of CC1CC(C[C@@H](O)[C@H](Cc2ccccc2)NC(=O)[C@@H](C[S+]([O-])c2ccc3ccccc3c2)NS(C)(=O)=O)C(C(=O)NC(C)(C)C)C1 (stereo partly drawn) [Example 15]
7.57

Then COC1CCC(C[C@@H](O)[C@H](Cc2ccccc2)NC(=O)[C@@H](C[S+]([O-])c2ccc3ccccc3c2)NS(C)(=O)=O)C(C(=O)NC(C)(C)C)C1 (stereo partly drawn) [Example 14] ?
7.68

The record that follows has no pIC50 shown yet.
# lookup: pIC50 of COC1CCC(C[C@@H](O)[C@H](Cc2ccccc2)NC(=O)[C@@H](CS(=O)(=O)c2cccc3ccccc23)NS(C)(=O)=O)C(C(=O)NC(C)(C)C)C1 (stereo partly drawn) [Example 29]
7.14

Every entry's value here was drawn from patent US6632826B1.
